Ref: patent US20150086555A1

biological target: recombinant soluble homotrimeric HA of A/Japan/305/57 (H2N2) (Influenza A virus A/Japan/305/1957(H2N2)); test: HA microarray, BCC supernatant; details: remark: other sources report otherwise
READOUT_NAME: Trimeric HA Binding: RLU (RLU)
Field: numeric (RLU). Do not append units.

Some entries whose results are on file:
BINDER	RECORDED_NUMBER
TCN-538 (3206_O17) (antibody, V domains shown) VH: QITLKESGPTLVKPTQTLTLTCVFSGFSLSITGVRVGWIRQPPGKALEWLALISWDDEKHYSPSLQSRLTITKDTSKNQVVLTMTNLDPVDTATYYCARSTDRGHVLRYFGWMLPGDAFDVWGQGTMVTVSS VL: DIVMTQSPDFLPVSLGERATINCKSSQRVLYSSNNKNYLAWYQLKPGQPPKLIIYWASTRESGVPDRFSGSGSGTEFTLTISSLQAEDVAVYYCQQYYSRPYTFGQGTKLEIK	43000
TCN-544 (5082_A19) (antibody, V domains shown) VH: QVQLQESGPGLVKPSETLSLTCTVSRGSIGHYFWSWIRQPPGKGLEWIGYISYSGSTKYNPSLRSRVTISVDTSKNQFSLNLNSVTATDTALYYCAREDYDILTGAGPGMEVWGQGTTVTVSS VL: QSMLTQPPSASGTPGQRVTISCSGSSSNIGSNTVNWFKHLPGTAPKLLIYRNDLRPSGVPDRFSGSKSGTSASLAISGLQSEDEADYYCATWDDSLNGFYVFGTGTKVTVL	187

Now turn to the next binder.
Enquiry: Using the record for TCN-540 (5060_F05) (antibody, V domains shown) VH: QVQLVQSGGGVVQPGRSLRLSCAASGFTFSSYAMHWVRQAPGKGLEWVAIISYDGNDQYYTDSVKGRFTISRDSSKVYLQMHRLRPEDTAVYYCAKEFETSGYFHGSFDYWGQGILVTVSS VL: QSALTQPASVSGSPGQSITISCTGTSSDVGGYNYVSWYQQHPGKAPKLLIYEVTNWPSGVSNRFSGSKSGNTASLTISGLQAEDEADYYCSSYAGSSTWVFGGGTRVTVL , report its Trimeric HA Binding: RLU.
Return: 2970
